Ref: patent US9725416B2

Target: human mGlu4 receptor (Homo sapiens, UniProt Q14833)
Construct: expressed in transfected cells; host or cells: HEK-293 (monoclonal, stably transfected)
Sequence (Q14833 33-912): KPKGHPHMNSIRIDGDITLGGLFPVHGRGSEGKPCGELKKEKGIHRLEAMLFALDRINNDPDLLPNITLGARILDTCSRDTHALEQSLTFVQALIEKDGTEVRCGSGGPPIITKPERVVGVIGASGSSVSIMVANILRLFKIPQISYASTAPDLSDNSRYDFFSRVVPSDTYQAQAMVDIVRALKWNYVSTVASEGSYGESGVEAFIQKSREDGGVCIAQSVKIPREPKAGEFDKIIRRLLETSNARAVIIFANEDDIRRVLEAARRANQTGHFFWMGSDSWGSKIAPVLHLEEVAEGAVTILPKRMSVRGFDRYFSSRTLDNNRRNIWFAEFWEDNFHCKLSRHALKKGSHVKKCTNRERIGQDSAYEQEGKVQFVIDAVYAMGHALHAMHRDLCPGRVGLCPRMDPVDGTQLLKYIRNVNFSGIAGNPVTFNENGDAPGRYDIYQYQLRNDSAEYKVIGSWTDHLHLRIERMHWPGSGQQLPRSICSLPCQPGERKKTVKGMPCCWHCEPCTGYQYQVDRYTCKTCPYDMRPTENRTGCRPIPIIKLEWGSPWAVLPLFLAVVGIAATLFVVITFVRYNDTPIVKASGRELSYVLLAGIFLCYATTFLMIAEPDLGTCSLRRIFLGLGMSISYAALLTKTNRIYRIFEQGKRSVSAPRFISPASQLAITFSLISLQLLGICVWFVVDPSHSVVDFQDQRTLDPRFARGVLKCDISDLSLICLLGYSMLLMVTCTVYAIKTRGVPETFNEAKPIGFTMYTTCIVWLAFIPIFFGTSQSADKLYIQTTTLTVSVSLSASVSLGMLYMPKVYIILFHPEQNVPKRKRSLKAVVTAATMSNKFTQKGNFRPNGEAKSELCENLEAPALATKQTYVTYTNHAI
Assay: Ca2+ mobilization in vitro assay on recombinant human mGlu4 expressed in HEK293 cells (mGlu4 PAM)
Type: cell-based
Settings: HEK-293 cells, Ca2+ mobilization, L-AP4 added at EC20
readout: EC50 (nM)

Please review the following examples before continuing.
# compound, unit-of-measure, EC50
records = [
    ("CN1C(=O)N(c2c(F)cc(C#Cc3ccccc3)cc2F)C(=O)C[C@@]1(C)c1cccnn1 [Example 58]", "nM", 49),
    ("CN1C(=O)N(c2c(F)cc(C#Cc3ccccc3)cc2F)C(=O)C[C@@]1(C)c1cnc(=O)[nH]c1 [Example 80]", "nM", 185),
    ("CN1C(=O)N(c2c(F)cc(C#Cc3ccccc3)cc2F)C(=O)C[C@@]1(C)c1cncc(F)c1 [Example 59]", "nM", 75),
]

A. COc1cccc(C2(C)CC(=O)N(c3c(F)cc(C#Cc4cccnc4)cc3F)C(=O)N2C)c1 (racemic) [Example 42]
B. CN1C(=O)N(c2ccc(C#Cc3ccccc3)cc2)C(=O)CC1(C)c1ccccc1 (racemic) [Example 24]
C. CN1C(=O)N(c2c(F)cc(C#Cc3ccccc3)cc2F)C(=O)C[C@@]1(C)c1ccnnc1 [Example 61]
D. CN1C(=O)N(c2c(F)cc(C#Cc3cccnc3)cc2F)C(=O)CC1(C)c1ccccc1 (stereo in doubt) [Example 19]
### Prompt Place the items in sequence of falling EC50. Form entry: ranked labels (order as requested).
### Response B, A, C, D
(B: 254 nM, A: 165 nM, C: 84 nM, D: 50 nM)

---

Target: human mGlu4 receptor (Homo sapiens, UniProt Q14833)
Construct: expressed in transfected cells; host or cells: HEK-293 (monoclonal, stably transfected)
Assay: Ca2+ mobilization in vitro assay on recombinant human mGlu4 expressed in HEK293 cells (mGlu4 PAM)
Assay type: cell-based
Details: HEK293; maximal response in % of the maximal stimulatory effect obtained with saturating concentrations of L-AP4; read-out: Eff. (%)
readout: Emax (%)

# molecule, readout, obs-value
measured = [
    ("CC(C)n1cc([C@]2(C)CC(=O)N(c3c(F)cc(C#Cc4ccccc4)cc3F)C(=O)N2C)ccc1=O", "Emax", 113),
    ("CN1C(=O)N(c2c(F)cc(C#Cc3ccccc3)cc2F)C(=O)CC12CCCC2", "Emax", 142),
    ("CN1C(=O)N(c2c(F)cc(C#Cc3ccccc3)cc2Cl)C(=O)C[C@@]1(C)c1cccnc1", "Emax", 105),
    ("CN1C(=O)N(c2c(F)cc(C#Cc3cccnc3)cc2Cl)C(=O)CC1(C)c1ccccc1 (racemic)", "Emax", 150),
    ("CN1C(=O)N(c2c(F)cc(C#Cc3ccccc3)cc2F)C(=O)C[C@@]1(C)c1cnc(=O)[nH]c1", "Emax", 105),
    ("CN1C(=O)N(c2c(F)cc(C#Cc3cccnc3)cc2F)C(=O)CC1(C)c1ccccc1Cl (racemic)", "Emax", 109),
    ("CN1C(=O)N(c2c(F)cc(C#Cc3ccccc3)cc2F)C(=O)C[C@@]1(C)c1cnc2c(ccn2C)c1", "Emax", 114),
]

---

Molecular target: human mGlu4 receptor (Homo sapiens, UniProt Q14833)
Construct: expressed in transfected cells; host or cells: HEK-293 (monoclonal, stably transfected)
Experiment: Ca2+ mobilization in vitro assay on recombinant human mGlu4 expressed in HEK293 cells (mGlu4 PAM)
Type: cell-based
Details: HEK293; maximal response in % of the maximal stimulatory effect obtained with saturating concentrations of L-AP4; read-out: Eff. (%)
readout: Emax (%)

# molecule, target-under-test, Emax [%]
measured = [
    ("CN1C(=O)N(c2c(F)cc(C#Cc3ccccc3)cc2F)C(=O)CC1(C)c1ccccn1 (racemic) [Example 27]", "human mGlu4 receptor (Homo sapiens, UniProt Q14833)", 99),
    ("CC(C)C1(C)CC(=O)N(c2c(F)cc(C#Cc3ccccc3)cc2F)C(=O)N1C (racemic) [Example 26]", "human mGlu4 receptor (Homo sapiens, UniProt Q14833)", 107),
    ("CCC1(c2ccccc2)CC(=O)N(c2c(F)cc(C#Cc3cccnc3)cc2F)C(=O)N1C (racemic) [Example 48]", "human mGlu4 receptor (Homo sapiens, UniProt Q14833)", 108),
    ("CN1C(=O)N(c2c(F)cc(C#Cc3ccccc3)cc2F)C(=O)CC1(C)c1cccnc1 (racemic) [Example 29]", "human mGlu4 receptor (Homo sapiens, UniProt Q14833)", 144),
    ("CN1C(=O)N(c2c(F)cc(C#Cc3ccccc3)cc2F)C(=O)CC1(C)c1ccccc1 (racemic) [Example 13]", "human mGlu4 receptor (Homo sapiens, UniProt Q14833)", 119),
    ("CCC1(CC)CC(=O)N(c2c(F)cc(C#Cc3ccccc3)cc2F)C(=O)N1C [Example 22]", "human mGlu4 receptor (Homo sapiens, UniProt Q14833)", 137),
    ("CCN1C(=O)N(c2c(F)cc(C#Cc3ccccc3)cc2F)C(=O)C[C@@]1(C)c1ccnc(C)c1 [Example 77]", "human mGlu4 receptor (Homo sapiens, UniProt Q14833)", 111),
]

---

Molecular target: human mGlu4 receptor (Homo sapiens)
Construct: expressed in transfected cells; host or cells: HEK-293 (monoclonal, stably transfected)
Assay: Ca2+ mobilization in vitro assay on recombinant human mGlu4 expressed in HEK293 cells (mGlu4 PAM)
Format: cell-based
Settings: HEK-293 cells, Ca2+ mobilization, L-AP4 added at EC20
readout: EC50 (nM)

# compound, target-under-test, EC50 / nM
data = [
    ("CN1C(=O)N(c2c(F)cc(C#Cc3ccccc3)cc2F)C(=O)C[C@@]1(C)c1ccc(=O)n(C)n1 [Example 83]", "human mGlu4 receptor (Homo sapiens)", 42),
]

1. CN1C(=O)N(c2c(F)cc(C#Cc3ccccc3)cc2F)C(=O)C[C@@]1(C)c1ccc(=O)[nH]n1 [Example 82]
2. CN1C(=O)N(c2c(F)cc(C#Cc3ccccc3)cc2F)C(=O)CC1(C)c1cccnc1 (racemic) [Example 29]
3. CC(C)n1cc([C@]2(C)CC(=O)N(c3c(F)cc(C#Cc4ccccc4)cc3F)C(=O)N2C)ccc1=O [Example 68]
### Prompt Please put the entries in order of rising EC50. List each label, following the requested order.
### Response 1, 3, 2
(1: 18 nM, 3: 44 nM, 2: 109 nM)

---

Target: human mGlu4 receptor (Homo sapiens, UniProt Q14833)
Construct: expressed in transfected cells; host or cells: HEK-293 (monoclonal, stably transfected)
Assay: Ca2+ mobilization in vitro assay on recombinant human mGlu4 expressed in HEK293 cells (mGlu4 PAM)
Type: cell-based
Details: HEK293; maximal response in % of the maximal stimulatory effect obtained with saturating concentrations of L-AP4; read-out: Eff. (%)
readout: Emax (%)

# molecule, unit-of-measure, Emax
records = [
    ("CC12CC(=O)N(c3c(F)cc(C#Cc4ccccc4)cc3F)C(=O)N1CCN(Cc1ccccc1)C2=O (racemic)", "%", 97),
    ("CN1C(=O)N(c2ccc(C#Cc3ccccc3)cc2Cl)C(=O)CC12CCOCC2", "%", 103),
    ("CN1C(=O)N(c2c(F)cc(C#Cc3ccccc3)cc2F)C(=O)C[C@@]1(C)c1cnccn1", "%", 102),
    ("CN1C(=O)N(c2c(F)cc(C#Cc3ccccc3)cc2F)C(=O)CC1(C)c1ccc(Cl)nc1 (racemic)", "%", 108),
    ("CN1CCN2C(=O)N(c3c(F)cc(C#Cc4ccccc4)cc3F)C(=O)CC2(C)C1=O (racemic)", "%", 131),
    ("CN1C(=O)N(c2c(F)cc(C#Cc3cccnc3)cc2Cl)C(=O)CC1(C)c1cccnc1 (racemic)", "%", 142),
    ("CN1C(=O)N(c2c(F)cc(C#Cc3ccccc3)cc2F)C(=O)C[C@@]1(C)c1ccn(C)c(=O)c1", "%", 108),
]

---

Target: human mGlu4 receptor (Homo sapiens, UniProt Q14833)
Construct: expressed in transfected cells; host or cells: HEK-293 (monoclonal, stably transfected)
Test: Ca2+ mobilization in vitro assay on recombinant human mGlu4 expressed in HEK293 cells (mGlu4 PAM)
Assay type: cell-based
Settings: HEK-293 cells, Ca2+ mobilization, L-AP4 added at EC20
readout: EC50 (nM)

// below: answered molecules
# molecule, obs-value
rows = [
    ("CN1C(=O)N(c2ncc(C#Cc3ccccc3)cc2F)C(=O)C[C@@]1(C)c1cccnc1", 104),
    ("COc1ccc([C@]2(C)CC(=O)N(c3c(F)cc(C#Cc4ccccc4)cc3F)C(=O)N2C)nn1", 28),
    ("O=C1CC2COCCN2C(=O)N1c1c(F)cc(C#Cc2ccccc2)cc1F (racemic)", 144),
    ("COCC1(C)CC(=O)N(c2c(F)cc(C#Cc3ccccc3)cc2F)C(=O)N1C (racemic)", 123),
]

1. CCN1C(=O)N(c2c(F)cc(C#Cc3cccnc3)cc2F)C(=O)CC1(C)c1ccccc1 (racemic)
2. CN1C(=O)N(c2c(F)cc(C#Cc3ccccc3)cc2F)C(=O)C[C@@]1(C)c1cc[nH]c(=O)c1
### Prompt Compare 1 and 2 and name the one whose reported EC50 is smaller. Returns: label corresponding to the selected item.
### Response 2
